Biological target: AMP deaminase 2 (Homo sapiens, UniProt Q01433)
Sequence (Q01433 whole entry): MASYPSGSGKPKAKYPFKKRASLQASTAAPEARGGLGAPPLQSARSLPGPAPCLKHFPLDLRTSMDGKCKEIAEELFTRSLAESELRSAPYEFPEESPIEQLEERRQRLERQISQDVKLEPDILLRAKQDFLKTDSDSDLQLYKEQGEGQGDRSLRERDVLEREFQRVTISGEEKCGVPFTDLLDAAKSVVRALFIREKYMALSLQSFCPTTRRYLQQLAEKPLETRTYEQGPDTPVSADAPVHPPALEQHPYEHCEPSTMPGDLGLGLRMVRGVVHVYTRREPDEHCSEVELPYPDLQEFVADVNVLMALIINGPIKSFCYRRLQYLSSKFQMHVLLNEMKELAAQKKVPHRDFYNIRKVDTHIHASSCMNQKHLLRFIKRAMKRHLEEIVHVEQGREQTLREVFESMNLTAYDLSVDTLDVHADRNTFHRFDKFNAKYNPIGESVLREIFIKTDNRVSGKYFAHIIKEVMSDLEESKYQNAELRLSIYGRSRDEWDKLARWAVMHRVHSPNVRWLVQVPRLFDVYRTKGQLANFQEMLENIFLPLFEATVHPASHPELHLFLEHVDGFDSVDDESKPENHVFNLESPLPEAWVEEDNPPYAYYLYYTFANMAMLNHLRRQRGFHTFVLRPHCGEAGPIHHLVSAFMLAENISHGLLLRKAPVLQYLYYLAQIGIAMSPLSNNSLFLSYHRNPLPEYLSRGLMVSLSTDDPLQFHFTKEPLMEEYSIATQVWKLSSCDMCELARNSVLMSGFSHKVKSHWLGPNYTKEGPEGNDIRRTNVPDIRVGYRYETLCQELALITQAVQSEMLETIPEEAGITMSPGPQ
Assay: Inhibition of recombinant human AMPD2 using AMP as substrate preincubated for 30 mins followed by substrate addition and measured after 30 mins by spectrophotometric analysis
Please provide measured IC50 for the entries that follow.
Answers are plain numbers, in nM.

{"columns": ["MOLECULAR STRING", "IC50, nM"],
 "data": [
  ["Cc1cccc(CN2c3ccccc3N(C(N)=O)CC2(C)C)c1", 300]
]}

For every item in the list below, what is its measured IC50?
1. CC1(C)CN(C(N)=O)c2ccccc2N1Cc1ccc(COc2ccccc2)cc1
2. CC1(C)CN(C(N)=O)c2ccc(F)c(F)c2N1Cc1ccc(COc2ccc(CO)cc2)cc1
3. CC1(C)CN(C(N)=O)c2ccc(F)c(F)c2N1Cc1ccccc1
4. CC1(C)CN(C(N)=O)c2ccccc2N1Cc1cccc(CCc2ccccc2)c1

1. 110
2. 100
3. 60
4. 500
